Attribute: Top
system_under_test: T1, human GPRC5D (human, UniProt Q9NZD1 1-345)
T1 construct: whole, on cells; also called hGPRC5D; G-protein coupled receptor family C group 5 member D
assay_remarks: FACS, CHOS-hGPRC5D cells
endpoint_label: Top

INSERT INTO measurements (binder, data_value) VALUES
  ('ch83A9B8 (antibody, V domains shown) VH: EVQLQQSGPELVKPGASVKMSCKASGYTFSNYVIHWVKQKPGQGLEWIGYFNPYNDGSKYNEKFKGKATLTSDKSSSTAYMELSSLTSEDSAVYYCARGGVRRYFDVWGAGTTVTVSS VL: DIQMTQSPSSLSASLGERVSLTCRASQDIGDNLNWLQQEPDGTIKRLIYATFSLDSGVPKRFSGSRSGSVYSLTISRLESEDFVDYFCLHYASFPYTFGGGTKLEIK', 1840),
  ('ch82A1C10 (antibody, V domains shown) VH: QVQLKESGPGLVAPSQSLSITCTVSGFSLTNYAVTWVRQPPGKGLEWLGVIWGDGSTYYHSALVSRLSITKDNSRTQVLLKLNSLQTDDTARYYCAKGGYSPFAYWGQGTLVTVSA VL: DVVMTQTPLSLPVSLGDQASISCRSSQSLVHSNGNTYLHWYLQKPGQSPKLLIFKVSNRFSGVPDRFSGSGSGTDFTLKISRVEAEDLGVYFCSQNTHVPFTFGSGTKLEIK', 2680);

The reported numbers originate from patent US20250368734A1.
